Tested on: PMA/Ionomycin-induced NF-κB reporter gene activity
experimentalProtocol: NF-κB luciferase reporter gene assay, PMA/Ionomycin-stimulated HEK293-NF-κB-luc cells
Type: cell-based
protocolConditions: Table II; read-out: IC50, Inhibition of antigen receptor-mediated Nf-κB
readoutName: IC50

Consider the reported IC50 for these compounds:
compoundstructurestring=COc1c(C(C)(C)C)cc(C(=O)Cn2c(NCCCO)nc3cc(C)c(C)cc32)cc1C(C)(C)C readoutname=IC50 experimentalvalue="70 nM"
compoundstructurestring=CCCCNc1nc2cc(C)c(C)cc2n1CC(=O)c1cc(C(C)(C)C)c(O)c(C(C)(C)C)c1 readoutname=IC50 experimentalvalue="100 nM"
compoundstructurestring=COCCCNc1nc2cc(C)c(C)cc2n1CC(=O)c1cc(C(C)(C)C)c(OC)c(C(C)(C)C)c1 readoutname=IC50 experimentalvalue="250 nM"
compoundstructurestring=COCCCNc1nc2cc(C)c(C)cc2n1CC(=O)c1cc(C(C)(C)C)c(O)c(C(C)(C)C)c1 readoutname=IC50 experimentalvalue="250 nM"

Alright, here's another compound for you.
Can you look up IC50 on PMA/Ionomycin-induced NF-κB reporter gene activity for Cc1cc2nc(NCCCO)n(CC(=O)c3cc(C(C)(C)C)c(O)c(C(C)(C)C)c3)c2cc1C ?
70 nM
